Where these numbers come from: the METLIN SMRT retention time set (Domingo-Almenara et al. 2019)

Experiment: gradient 5% acetonitrile 3 min, to 50% in 2 min, to 85% in 15 min, held 3 min, 100 µL/min
Conditions: column: Zorbax Extend-C18 2.1 x 50 mm; eluents: water / acetonitrile, 0.1% formic acid
Property Label: RP-LC retention time (s)
# value in s; strip the unit string

• Cn1cc(Cl)c(C(=O)N2CCCC2c2ccccc2F)n1 (stereo not given) = 813
• CCNC(=O)Cn1c(=O)c2cnc(-c3ccc(Cl)cc3)nc2n(C)c1=O = 927
• Cc1ccc(CN2C[C@@H](CO)[C@H](c3nc(C)no3)C2)cc1 = 592
• Cc1ccc(CNC(=O)C2(C)CN(S(=O)(=O)c3ccccc3)CC(=O)N2C2CC2)cc1 (stereo not given) = 783
• O=C(Nc1cccc2ccc(-n3ccnc3)nc12)c1ccccc1C(F)(F)F = 638
• O=C(c1cccs1)N1CCc2c([nH]c3ccccc23)C1c1ccc(Cl)cc1 (stereo not given) = 1220

Documented RP-LC retention time of COc1ccc(CC(=O)N2CCC(Nc3ncnc4c3CCC4)C2)cc1 (stereo not given) : 595

Documented RP-LC retention time of Cc1ccc2[nH]cc(CCNC(=O)c3ccc(Cl)cc3Cl)c2c1 : 957

====

Test: gradient 5% acetonitrile 3 min, to 50% in 2 min, to 85% in 15 min, held 3 min, 100 µL/min
Conditions: column: Zorbax Extend-C18 2.1 x 50 mm; eluents: water / acetonitrile, 0.1% formic acid
Property Label: RP-LC retention time (s)
# value in s; strip the unit string

- CCCN(C(=O)Nc1ccccc1[N+](=O)[O-])c1nc(-c2ccccc2)cs1: 1400
- CCc1nn2c(CNC(=O)c3cccc(OC)c3)c(-c3ccccc3)nc2s1: 885
- O=C(c1nc(-c2cccc(F)c2)n2c1CCCCC2)N1CCN(c2ncccn2)CC1: 724
- O=C(C1CCN(c2cncnc2N2CCCC2)CC1)N1CCN(c2ccccn2)CC1: 552
- Clc1ccc(C2(c3ccc(-c4cn[nH]c4)cc3)CCNCC2)cc1: 680
- COc1cccc(C2Cn3nnc(-c4nc(-c5ccccc5Br)no4)c3CO2)c1 (stereo not given): 1170
- CCC(=O)Nc1ccc2c(c1)Sc1ncccc1C(=O)N2C: 630
- COc1cc(OC)c(NC(=O)N2CCC(CN3CCCC(C)C3)CC2)cc1Cl (stereo not given): 630

Documented RP-LC retention time of O=C(Cc1ccccc1F)N1CCCC1c1nc(-c2cccc(C(F)(F)F)c2)no1 (stereo not given) : 1110

Documented RP-LC retention time of CCOC(=O)c1c(-c2ccccc2)csc1NC(=O)c1ccccc1C(=O)O : 963

Documented RP-LC retention time of Cn1c(=O)n(C)c2cc(CNCCc3ccc(F)cc3)ccc21 : 609

Documented RP-LC retention time of O=C(Nc1cccc(C(F)(F)F)c1)C1CCc2nc(N3CCOCC3)ncc2C1 (stereo not given) : 900

Documented RP-LC retention time of Cc1noc(-c2nc(-c3cccc(Cl)c3)no2)n1 : 1070

Documented RP-LC retention time of COc1ccc(C2Cn3nnc(-c4nc(-c5ccc(F)cc5)no4)c3CO2)cc1 (stereo not given) : 1130

Documented RP-LC retention time of Cc1cc(C)c2c(N3CCOCC3)nc(C(=O)NCc3ccc(F)cc3F)nc2n1 : 651

Documented RP-LC retention time of Cc1nc(C(=O)Nc2cccc(C(F)(F)F)c2)c(C)o1 : 988

====

Assay: gradient 5% acetonitrile 3 min, to 50% in 2 min, to 85% in 15 min, held 3 min, 100 µL/min
Settings: column: Zorbax Extend-C18 2.1 x 50 mm; eluents: water / acetonitrile, 0.1% formic acid
Here the recorded RP-LC retention time is given for each entry.
# value in s; strip the unit string

// worked examples, RP-LC retention time included
* O=C(Nc1ccc(Br)cc1)C1CCCN(c2nccnc2Oc2ccccc2)C1 (centres undefined) | 1140
* COc1ccc(N2CCN(c3cc(SCC(=O)Nc4ccc(C)cc4)ncn3)CC2)cc1 | 966
* CCCCn1cnc2c(-c3ccccc3)cn(CC(=O)NCCC(C)C)c2c1=O | 1050
* CCCC(=O)Nc1nc(-c2ccc3c(c2)N(C)C(=O)CO3)cs1 | 821
* CC1CCN(c2ccc(N3CCN(S(=O)(=O)c4cc(F)ccc4F)CC3)nn2)CC1 | 606

Documented RP-LC retention time of CCCc1noc(-c2ccc3nnc(CC(=O)Nc4ccc(Cl)cc4)n3c2)n1 : 937

Documented RP-LC retention time of CCc1nnc(NC(=O)CCc2ccc(-c3ccc(F)cc3)o2)s1 : 855

Documented RP-LC retention time of COc1ccccc1Cc1nc(-c2ccccc2)nn(C2OC(COC(C)=O)C(OC(C)=O)C(OC(C)=O)C2OC(C)=O)c1=S (centres undefined) : 1190

Documented RP-LC retention time of CCc1cc(-c2csc(S(=O)(=O)Nc3ccc(F)c(Cl)c3)c2)on1 : 1020

====

Assay: gradient 5% acetonitrile 3 min, to 50% in 2 min, to 85% in 15 min, held 3 min, 100 µL/min
Conditions: column: Zorbax Extend-C18 2.1 x 50 mm; eluents: water / acetonitrile, 0.1% formic acid
Property Label: RP-LC retention time (s)
# value in s; strip the unit string

- CCn1cnc(S(=O)(=O)N2CCCC(C(=O)Nc3cccc(F)c3)C2)c1 (stereo not given): 760

Documented RP-LC retention time of CCc1nc2cc(N3CCC(C(=O)NCCN4CCCCC4)CC3)cnc2nc1CC : 580

Documented RP-LC retention time of CCCN1C(=O)c2c(C(=O)NCCC(C)C)ncn2CC1(C)C(=O)NCc1ccc(F)cc1 (stereo not given) : 824

Documented RP-LC retention time of CN(C(=O)Cn1nc(Cc2ccncc2)c2ccccc2c1=O)c1ccc(Br)cc1 : 655

Documented RP-LC retention time of CS(=O)(=O)N1CCC(CNC(=O)NC(c2ccccc2)c2ccccc2)CC1 : 732

====

Test: gradient 5% acetonitrile 3 min, to 50% in 2 min, to 85% in 15 min, held 3 min, 100 µL/min
Conditions: column: Zorbax Extend-C18 2.1 x 50 mm; eluents: water / acetonitrile, 0.1% formic acid
Property Label: RP-LC retention time (s)
# value in s; strip the unit string

// worked examples, RP-LC retention time included
- NS(=O)(=O)c1ccc(CCNC(=O)c2cnc3sccn3c2=O)cc1: 568
- CN(C)c1ccc(CNC(=O)c2nnc(-c3ccc(S(=O)(=O)N4CCCCC4)cc3)o2)cc1: 754
- CCOc1ccc(-c2nc(CN(c3ccccc3)S(=O)(=O)c3cccs3)c(C)o2)cc1: 1220

Documented RP-LC retention time of O=C(NCCC1=CCCCC1)C1CCc2ncc(-c3ccsc3)n2C1 (stereo not given) : 601

Documented RP-LC retention time of CCCN1CCN(C(=O)C2CCN(S(=O)(=O)c3ccc4c(c3)sc(=O)n4CCC)CC2)CC1 : 658

====

Test: gradient 5% acetonitrile 3 min, to 50% in 2 min, to 85% in 15 min, held 3 min, 100 µL/min
Details: column: Zorbax Extend-C18 2.1 x 50 mm; eluents: water / acetonitrile, 0.1% formic acid
Property Label: RP-LC retention time
Write down the value, and be sure its unit follows.

* Cc1ccccc1-n1c(Cn2cnc3c(N)ncnc32)nc2cccc(C)c2c1=O | 719 s
* COCCN1C(=O)[C@H]2CN(Cc3cccc4[nH]ccc34)C[C@H]2C1=O | 583 s
* O=C(O)CNC(=O)C1CCN(S(=O)(=O)c2ccc(F)cc2)CC1 | 652 s
* O=C(NCc1ccccc1Cl)c1coc(NC(=O)c2cccs2)n1 | 719 s

Documented RP-LC retention time of Cc1cc(C)cc(NS(=O)(=O)c2cc3n(c2)CCCNC3=O)c1 : 678 s

Documented RP-LC retention time of CCOC(=O)C1CCN(C(=O)CCC(=O)N2CCCn3nc(-c4cn(C)c5ccccc45)cc32)CC1 : 798 s

Documented RP-LC retention time of COc1ccccc1-c1ccc(N2CCN(C(=O)NC3CCCCC3)CC2)nn1 : 601 s

Documented RP-LC retention time of COc1ccccc1-c1noc(C2CCCN2C(=O)c2cccs2)n1 (stereo not given) : 849 s

Documented RP-LC retention time of Cc1ccsc1C(=O)N1CCN(c2cc(-c3ccccc3)[nH]n2)CC1 : 744 s

====

Here the recorded RP-LC retention time is given for each entry.
Test: gradient 5% acetonitrile 3 min, to 50% in 2 min, to 85% in 15 min, held 3 min, 100 µL/min
Conditions: column: Zorbax Extend-C18 2.1 x 50 mm; eluents: water / acetonitrile, 0.1% formic acid
# value in s; strip the unit string

• CCNc1cc(N2CCC(CCC(=O)NC(C)C)CC2)ncn1 = 598

Documented RP-LC retention time of c1cncc(-c2n[nH]c(C3CCCCN3)n2)c1 (stereo not given) : 555

Documented RP-LC retention time of Cc1ccc(Cl)cc1NCc1nnc2n1CCCCC2 : 739

Documented RP-LC retention time of CC1=C(C(=O)N2CCOCC2)C(c2c(F)cccc2Cl)C2=C(CC(C)(C)CC2=O)N1 (stereo not given) : 690

Documented RP-LC retention time of Cc1cc(F)ccc1NC(=O)c1cn2c(n1)CCCC2 : 600
